# method_summary: ATG_FoxO_CIS: Attagene CIS-FACTORIAL HepG2 Assay for human Forkhead box O (FoxO) (AID 2282943)
# condition: HepG2 Attagene cis-reporter, FoxO element, mRNA; actives raise or lower the signal
The source made the active and inactive calls. How the source made its calls: active means hit-call score of the fitted dose curve at least 0.9, where 1 is the maximum; inactive means score below 0.9.
Permitted responses: label 1 = active, label 0 = inactive

A selection of reference data follows.
NC(=O)C(F)(F)C(F)(F)C(F)(F)C(F)(F)F :: label 0
CCN(Cc1cccc(S(=O)(=O)O)c1)c1ccc(C(=C2C=CC(=[N+](CC)Cc3cccc(S(=O)(=O)O)c3)C=C2)c2ccc(O)cc2S(=O)(=O)[O-])cc1 :: label 0
CC(CCl)OP(=O)(OC(C)CCl)OC(C)CCl (stereo unspecified) :: label 0
O=C(O)C(F)(F)C(F)(F)OC(F)(F)F :: label 0
O=C(O)C(F)(F)C(F)(F)C(F)(F)C(F)(F)C(F)(F)C(F)(F)C(F)(F)C(F)(F)C(F)(F)C(F)(F)C(F)(F)C(F)(F)C(F)(F)F :: label 0
CC(C)(C)c1ccc(OC2CCCCC2O)cc1 (stereo unspecified) :: label 0
Nc1cc(Cl)c(N)c(Cl)c1 :: label 0
CC(=O)Nc1ccc(N=Nc2cc(C)ccc2O)cc1 :: label 0

Hey, what did the test say about Cc1cccc(N(C)C)c1 ?
label 0

Hey, what did the test say about O=C(O)C(F)(OC(F)(F)C(F)(OC(F)(F)C(F)(OC(F)(F)C(F)(F)C(F)(F)F)C(F)(F)F)C(F)(F)F)C(F)(F)F (stereo unspecified) ?
label 0

Hey, what did the test say about O=C(O)C(F)(F)C(F)(F)C(F)(F)C(F)(F)F ?
label 0

Hey, what did the test say about CN(C)Cc1ccccc1O ?
label 0

* * *

# measurement_target: Cellular tumor antigen p53 (Homo sapiens) (UniProt P04637)
# Sequence (P04637 whole entry, looked up): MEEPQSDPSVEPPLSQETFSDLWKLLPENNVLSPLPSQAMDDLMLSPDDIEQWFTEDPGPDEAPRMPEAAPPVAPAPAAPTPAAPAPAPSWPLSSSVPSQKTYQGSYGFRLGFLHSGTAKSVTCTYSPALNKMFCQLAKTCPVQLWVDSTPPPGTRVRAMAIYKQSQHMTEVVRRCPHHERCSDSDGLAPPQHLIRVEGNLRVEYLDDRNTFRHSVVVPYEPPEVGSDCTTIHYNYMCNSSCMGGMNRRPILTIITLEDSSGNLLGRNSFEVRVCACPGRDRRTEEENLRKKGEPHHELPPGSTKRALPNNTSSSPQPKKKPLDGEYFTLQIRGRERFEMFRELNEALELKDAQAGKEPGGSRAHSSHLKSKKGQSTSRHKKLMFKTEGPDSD
# method_summary: TOX21_p53_BLA_p5_ratio: Tox21 HCT-116 p53 Agonism Beta-lactamase Assay, Ratio, Phase 5 (AID 2283599)
Results filed as inconclusive are left out. Calls of active or inactive are those of the source. How the source made its calls: active means hit-call score of the fitted dose curve at least 0.9, where 1 is the maximum; inconclusive means response in the unintended direction; inactive means score below 0.9.
quantity_kind: AC50

Nc1ccc([N+](=O)[O-])cc1O :: inactive
C(=C(c1ccccc1)c1ccccc1)c1ccccc1 :: inactive
O=C(OCCOCCOCCOC(=O)c1ccccc1)c1ccccc1 :: 82.1 µM (active)
COC(=O)C1CCC(C(=O)OC)CC1 (stereo not given) :: inactive

Count: 8. Required value per item: AC50.
1. OC[C@@H](O)[C@@H](O)[C@H](O)[C@@H](O)CO
2. CC/C=C\CCOC(=O)c1ccccc1
3. CC(Cc1ccc(O)c(O)c1)C(C)Cc1ccc(O)c(O)c1 (stereo not given)
4. CCCCNc1ccccc1
5. FC(F)(F)C(F)(F)C(F)(F)C(F)(F)CCI
6. Oc1ccc(Nc2ccccc2)cc1
7. Cc1cc(C)cc(O)c1
8. CCc1ccc(C(c2ccc(CC)cc2)C(Cl)Cl)cc1

inactive
inactive
81.3 µM (active)
inactive
inactive
inactive
inactive
inactive

Count: 2. Required value per item: AC50.
1. CNC(=S)NC
2. O=S(=O)(O)c1ccc2ccccc2c1

1. inactive
2. inactive

Write AC50 of CCCCCCOC(=O)c1ccccc1 ; system used: Cellular tumor antigen p53 (Homo sapiens) (UniProt P04637)
inactive

* * *

# measurement_target: Cellular tumor antigen p53 (Homo sapiens) (UniProt P04637)
# method_summary: TOX21_p53_BLA_p3_ratio: Tox21 HCT-116 p53 Agonism Beta-lactamase Assay, Ratio, Phase 3 (AID 2283596)
Results filed as inconclusive are left out. Active and inactive are the calls of the source. How the source made its calls: active means hit-call score of the fitted dose curve at least 0.9, where 1 is the maximum; inconclusive means response in the unintended direction; inactive means score below 0.9.
quantity_kind: outcome

Known results for compounds:
CCC(=O)OCCc1ccccc1 :: inactive
Nc1ccc([N+](=O)[O-])cc1O :: inactive
CCCCOc1ccc(N)cc1 :: inactive
Oc1ccc(Nc2ccccc2)cc1 :: inactive
CCCCCC=O :: inactive
Cc1cc(C)cc(O)c1 :: inactive
CCCCCCOC(=O)c1ccccc1O :: inactive
CC(CCl)OP(=O)(OC(C)CCl)OC(C)CCl (stereo not given) :: inactive
CCc1ccc(C(c2ccc(CC)cc2)C(Cl)Cl)cc1 :: inactive
OC[C@@H](O)[C@@H](O)[C@H](O)[C@@H](O)CO :: inactive

Count: 2. Required value per item: outcome.
1. C1COCCN1
2. C#C[C@]1(O)CC[C@H]2[C@@H]3CCc4cc(OC)ccc4[C@H]3CC[C@@]21C

inactive
inactive

Count: 3. Required value per item: outcome.
1. CC/C=C\CCOC(C)=O
2. CC/C=C\CCOC(=O)c1ccccc1
3. COC(=O)C1CCC(C(=O)OC)CC1 (stereo not given)

1. inactive
2. inactive
3. inactive

* * *

# method_summary: CCTE_Shafer_MEA_dev_bursting_electrodes_number: CCTE's Neural Network Formation Assay for Number of Bursting Electrodes, Shafer Lab (AID 2284043)
Results filed as inconclusive are left out. Active and inactive are the calls of the source. How the source made its calls: active means hit-call score of the fitted dose curve at least 0.9, where 1 is the maximum; inconclusive means response in the unintended direction; inactive means score below 0.9.
Permitted responses: active, inactive

A selection of reference data follows.
OCC(F)(F)C(F)(F)C(F)(F)F :: inactive
OC[C@@H](O)[C@@H](O)[C@H](O)[C@@H](O)CO :: inactive
O=C(O)C=C(C(F)(F)F)C(F)(F)F :: inactive
CC(C)(C)C(=O)CC(=O)C(F)(F)C(F)(F)C(F)(F)F :: active
O=C(O)C(F)(F)C(F)(F)C(F)(F)C(F)(F)C(F)(F)C(F)(F)C(F)(F)C(F)(F)Cl :: inactive

Hey, what did the test say about OCC(F)(F)C(F)(F)C(F)(F)C(F)(F)C(F)(F)C(F)F ?
inactive

Hey, what did the test say about C=CC(=O)OCC(F)(F)C(F)(F)C(F)(F)C(F)(F)COC(=O)C=C ?
active

Hey, what did the test say about O=C(O)C(F)(F)C(F)(F)C(F)(F)F ?
inactive

Hey, what did the test say about CC(CCl)OP(=O)(OC(C)CCl)OC(C)CCl (centres undefined) ?
inactive

* * *

# method_summary: ATG_NF_kB_CIS: Attagene CIS-FACTORIAL HepG2 Assay for human Nuclear Factor Kappa B (NF-kB) (AID 2282991)
# condition: HepG2 Attagene cis-factorial NF-kB reporter mRNA; actives raise or lower the signal
The source made the active and inactive calls. How the source made its calls: active means hit-call score of the fitted dose curve at least 0.9, where 1 is the maximum; inactive means score below 0.9.
Permitted responses: active, inactive

A selection of reference data follows.
CCO[Si](CCC(F)(F)C(F)(F)C(F)(F)C(F)(F)C(F)(F)C(F)(F)F)(OCC)OCC :: inactive
FC(F)(F)C(F)(F)C(F)(F)C(F)(F)C(F)(F)CCI :: inactive
CCCCCCOC(=O)c1ccccc1O :: inactive
O=C(Cl)C(F)(F)C(F)(F)C(F)(F)C(F)(F)C(F)(F)C(F)(F)C(F)(F)C(F)(F)F :: inactive
COC(=O)C1CCC(C(=O)OC)CC1 (centres undefined) :: inactive
CC(C)=CCCC(C)CCOC(=O)C(C)C (centres undefined) :: inactive

Hey, what did the test say about N=C(N)C(F)(F)C(F)(F)C(F)(F)C(F)(F)C(F)(F)C(F)(F)C(F)(F)F ?
inactive

Hey, what did the test say about FC(F)(F)C(F)(F)C(F)(F)N(C(F)(F)C(F)(F)C(F)(F)F)C(F)(F)C(F)(F)C(F)(F)F ?
inactive

Hey, what did the test say about CCCCNc1ccccc1 ?
inactive

Hey, what did the test say about C=CC(=O)OCC(F)(F)C(F)(F)C(F)(F)C(F)(F)COC(=O)C=C ?
active

Hey, what did the test say about CCCCCCCOC(=O)c1ccccc1C(=O)OCCCCCCC ?
inactive

Hey, what did the test say about Oc1ccc(Nc2ccccc2)cc1 ?
inactive

Hey, what did the test say about CC/C=C\CCOC(=O)c1ccccc1 ?
inactive

Hey, what did the test say about C=C(C)C(=O)OCC(F)(F)C(F)(F)C(F)(F)C(F)(F)C(F)(F)C(F)(F)C(F)(F)F ?
inactive

* * *

# method_summary: CCTE_Shafer_MEA_dev_firing_rate_mean: CCTE's Neural Network Formation Assay for Mean Firing Rate, Shafer Lab (AID 2284031);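 further: AUC of well mean spike rate recorded on DIV 5 7 9 and 12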
Active and inactive are the calls of the source. Rule for the calls: active = hit-call score of the fitted dose curve at least 0.9, where 1 is the maximum; inactive = score below 0.9.
Permitted responses: active, inactive

A selection of reference data follows.
FC(F)(F)C(F)(F)C(F)(F)C(F)(F)C(F)(F)C(F)(F)CC1CO1 (configuration not stated) :: inactive
FC(F)(F)C(F)(F)C(F)(F)C(F)(F)C(F)(F)CCI :: inactive
O=C(O)C(F)(F)C(F)(F)C(F)(F)C(F)(F)C(F)(F)C(F)(F)C(F)(F)C(F)(F)Cl :: inactive
O=C(O)C(F)(F)C(F)(F)C(F)(F)C(F)(F)C(F)(F)C(F)(F)C(F)(F)C(F)(F)C(F)(F)C(F)F :: inactive
O=S(=O)(OCC(F)F)C(F)(F)F :: inactive

Hey, what did the test say about OCC(F)(F)C(F)(F)C(F)(F)C(F)F ?
inactive

Hey, what did the test say about OCCCC(F)(F)C(F)(F)C(F)(F)F ?
inactive

Hey, what did the test say about O=C(O)C(F)(F)C(F)(F)C(F)F ?
inactive

Hey, what did the test say about Cc1ccc(S(=O)(=O)OCC(F)(F)C(F)(F)C(F)(F)C(F)(F)C(F)(F)C(F)F)cc1 ?
inactive

Hey, what did the test say about C=CC(=O)OCC(F)(F)C(F)(F)C(F)(F)C(F)(F)COC(=O)C=C ?
active

Hey, what did the test say about NC(=O)C(F)(F)C(F)(F)C(F)(F)C(F)(F)F ?
inactive

Hey, what did the test say about OCC(F)(F)C(F)(F)C(F)(F)C(F)(F)C(F)(F)C(F)F ?
inactive
